# Tested on: DMS-114
# Procedure text: NCI tumour cell line growth inhibition, 48 h
Active and inactive are the calls of the source. Rule as the data show it: active = GI50 up to about 1.1 µM and inactive = higher.
Readout name: GI50

>>> meas_value("C=C1C(=O)O[C@@H]2[C@H](O)[C@@H](C)[C@@H]3C=CC(=O)[C@@]3(C)[C@H](OC(=O)C=C(C)C)[C@H]12")
"2.4 µM (inactive)"
>>> meas_value("Oc1c(C(Nc2cccc3cccnc23)c2ccccc2)ccc2cccnc12 (stereo not given)")
"2.65 µM (inactive)"
>>> meas_value("Cc1c(C(=O)C/C(=N\\O)C(=O)Nc2cc(Cl)c(Cl)cc2Cl)[n+]([O-])c2ccccc2[n+]1[O-]")
"4.37 µM (inactive)"
>>> meas_value("Cn1c(C2CCCc3c2c2ccccc2n3C)cc2ccccc21 (stereo not given)")
"34.3 µM (inactive)"
>>> meas_value("CC(O)CCCOC(c1ccccc1)(c1ccccc1)c1ccccc1 (stereo not given)")
"13.2 µM (inactive)"

====

# Test system: OVCAR-3
# Procedure text: NCI tumour cell line growth inhibition, 48 h
Calls of active or inactive are those of the source. No stated cut-off is given here; in the data, active = GI50 up to about 1.1 µM and inactive = higher.
Reported GI50 by item:
Readout name: GI50

>>> meas_value("N#CCCN(CCC#N)c1ccc(C(=N/c2ccc(Cl)cc2)/N=N/c2ccc(Cl)cc2)cc1")
"16.7 µM (inactive)"
>>> meas_value("CCCCCCCCCc1cc(=O)c2c(O)cc(O)cc2o1")
"15.7 µM (inactive)"
>>> meas_value("O=C(Nc1nc2ncn(CCO)c2c(=S)[nH]1)c1ccccc1")
"> 100 µM (inactive)"
>>> meas_value("O=C(NC(=S)Nc1ccccc1)c1ccc([N+](=O)[O-])cc1")
"92.5 µM (inactive)"
>>> meas_value("Cc1cc(C)nc(NS(=O)(=O)c2ccc(Nc3c4ccccc4nc4c(C(=O)NNCCO)cccc34)cc2)n1")
"86.9 µM (inactive)"
>>> meas_value("CNC1=Nc2ccccc2C(=O)N2CSCC12 (stereo unspecified)")
"> 100 µM (inactive)"
>>> meas_value("O=C(/C=C1/Nc2ccc([N+](=O)[O-])cc2N/C1=C/C(=O)c1ccccc1)c1ccccc1")
"16.7 µM (inactive)"
>>> meas_value("COC(c1ccsc1)C(C#N)(C#N)/N=C/c1ccsc1 (stereo unspecified)")
"12.6 µM (inactive)"
>>> meas_value("CC(C)(C)C1=CC(=C2C(=O)C(=O)c3ccccc3C2=O)C=C(C(C)(C)C)C1=O")
"33 µM (inactive)"
>>> meas_value("O=c1c2cc([N+](=O)[O-])ccc2n2n1Cc1ccccc1CC2")
"> 100 µM (inactive)"
>>> meas_value("CC(C)(C)[Si](C)(C)OCCC1CC2(S(=O)(=O)C3=CC=C=C=C3)ON1CC2S(=O)(=O)c1ccccc1 (stereo unspecified)")
"> 10 µM (inactive)"
>>> meas_value("O=C1c2ccccc2C(=O)c2c(NC(=O)c3ccc4c5c(ncnc35)-c3ccccc3C4=O)cccc21")
"37.1 µM (inactive)"
>>> meas_value("Nc1nc(=S)n(-c2ccc(Cl)cc2)c2nc3ccccc3cc12")
"45 µM (inactive)"
>>> meas_value("Cc1ccc(C(=O)N/N=C(\\N=N\\c2ccc(C(=O)O)cc2)c2ccc(N(CCC#N)CCC#N)cc2C)cc1")
"62.8 µM (inactive)"
>>> meas_value("CC(C)OP(=O)(OC(C)C)/C(=N/Nc1ccc([N+](=O)[O-])cc1)Nc1ccc(N/C(=N\\Nc2ccc([N+](=O)[O-])cc2)P(=O)(OC(C)C)OC(C)C)cc1")
"70.1 µM (inactive)"
>>> meas_value("COc1cc(C(C)c2cc3c(cc2OCCN)OCO3)cc(OC)c1OC (stereo unspecified)")
"> 100 µM (inactive)"
>>> meas_value("COC(=O)C1=C(C(=O)OC)C23CC1C1C(C(=O)OC)=C(C(=O)OC)C12C1C=CC3C2C(=O)OC(=O)C21 (stereo unspecified)")
"3.72 µM (inactive)"
>>> meas_value("C/C(=N\\NC(N)=S)c1ccc(C)cc1C")
"75.7 µM (inactive)"
>>> meas_value("CC(SC(=S)Nc1cccc(F)c1)C(=O)O (stereo unspecified)")
"27.4 µM (inactive)"
>>> meas_value("COc1ccc(/C=C2\\C(=O)N(C3OC(COC(C)=O)C(OC(C)=O)C(OC(C)=O)C3OC(C)=O)c3ccccc3N=C2N)cc1 (stereo unspecified)")
"23.2 µM (inactive)"
>>> meas_value("CCn1c(=O)c2c3cc(O)ccc3oc2c2ccc(O)cc21")
"29.9 µM (inactive)"
>>> meas_value("O=C1Nc2ccccc2[C@]12C[C@H]2c1ccccn1")
"> 100 µM (inactive)"
>>> meas_value("Oc1c(C(Nc2cccc3cccnc23)c2ccccc2)ccc2cccnc12 (stereo unspecified)")
"5.77 µM (inactive)"
>>> meas_value("COc1ccc(C2[C@@H](Cl)C(=O)N2c2ccc(OC)cc2)cc1 (stereo partly specified)")
"93.1 µM (inactive)"
>>> meas_value("C=CC1ON(C)CCc2cc(OC)c(OC)cc21 (stereo unspecified)")
"> 100 µM (inactive)"
>>> meas_value("O=C(O)/C=C/c1ccc2c(c1)CC1(Cc3ccccc3C1)C2")
"27.7 µM (inactive)"
